Tested on: KRAS PDC tumor spheroids (HUVEC+MSC), viability
Experiment: Anticancer human tumor 254851-301-R-J1-PDC patient-derived colon carcinoma cell line growth inhibition [KRAS2]
Conditions: second compound 0.1 µM; first compound 1 µM; active compounds read low
measurementType: viability, T/C (%)

molecule | obsValue
CCNC(=O)CC1N=C(c2ccc(Cl)cc2)c2cc(OC)ccc2-n2c(C)nnc21 (stereo not given) + CC1OCC2(CCN(c3cnc(Sc4ccnc(N)c4Cl)c(N)n3)CC2)C1N | 95.6
CC(=O)OC12COC1CC(O)C1(C)C(=O)C(O)C3=C(C)C(OC(=O)C(O)C(NC(=O)OC(C)(C)C)c4ccccc4)CC(O)(C(OC(=O)c4ccccc4)C21)C3(C)C (stereo not given) + CNCc1ccccc1-c1csc(C(C)Nc2nc(C)nc3cc(OC)c(OC)cc23)c1 | 26.1
CC1(C)CCC(CN2CCN(c3ccc(C(=O)NS(=O)(=O)c4ccc(NCC5CCOCC5)c([N+](=O)[O-])c4)c(Oc4cnc5[nH]ccc5c4)c3)CC2)=C(c2ccc(Cl)cc2)C1 + C=CC(=O)N1CCN(c2nc(=O)n(-c3c(C)ccnc3C(C)C)c3nc(-c4c(O)cccc4F)c(F)cc23)C(C)C1 | 95.4
COc1cc(Nc2ncc3c(n2)-c2ccc(Cl)cc2C(c2c(F)cccc2OC)=NC3)ccc1C(=O)O + C=CC(=O)N1CCN(c2nc(OCC3CCCN3C)nc3c2CCN(c2cccc4cccc(C)c24)C3)CC1CC#N | 27
COC(=O)c1ccc2c(C(=Nc3ccc(N(C)C(=O)CN4CCN(C)CC4)cc3)c3ccccc3)c(O)[nH]c2c1 + C=CC(=O)N1CCN(c2nc(OCC3CCCN3C)nc3c2CCN(c2cccc4cccc(C)c24)C3)CC1CC#N | 83.8
CC1COCCN1c1cc(-c2ccnn2C)c2ccnc(-c3ccn[nH]3)c2n1 (stereo not given) + C=CC(=O)N1CCN(c2nc(OCC3CCCN3C)nc3c2CCN(c2cccc4cccc(C)c24)C3)CC1CC#N | 34
CCN1CCN(Cc2ccc(Nc3ncc(F)c(-c4cc(F)c5nc(C)n(C(C)C)c5c4)n3)nc2)CC1 + C=CC(=O)N1CCN(c2nc(=O)n(-c3c(C)ccnc3C(C)C)c3nc(-c4c(O)cccc4F)c(F)cc23)C(C)C1 | 47.1
CC(C)NCC(C(=O)N1CCN(c2ncnc3c2C(C)CC3O)CC1)c1ccc(Cl)cc1 (stereo not given) + CC1OCC2(CCN(c3cnc(Sc4ccnc(N)c4Cl)c(N)n3)CC2)C1N | 93.2
CC1(C)CCC(CN2CCN(c3ccc(C(=O)NS(=O)(=O)c4ccc(NCC5CCOCC5)c([N+](=O)[O-])c4)c(Oc4cnc5[nH]ccc5c4)c3)CC2)=C(c2ccc(Cl)cc2)C1 + CC1OCC2(CCN(c3cnc(Sc4ccnc(N)c4Cl)c(N)n3)CC2)C1N | 100
CC1OCC2(CCN(c3cnc(Sc4ccnc(N)c4Cl)c(N)n3)CC2)C1N (stereo not given) + C=CC(=O)N1CCN(c2nc(=O)n(-c3c(C)ccnc3C(C)C)c3nc(-c4c(O)cccc4F)c(F)cc23)C(C)C1 | 60.2

---

As shown below, each of these compounds has a reported viability, T/C value.
Tested on: KRAS PDC tumor spheroids (HUVEC+MSC), viability
Assay: Anticancer human tumor 254851-301-R-J1-PDC cell line growth inhibition [KRAS2];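 further: spheroids exposed to compounds for seven days before readout; 100% = DMSO vehicle control luminescence of the spheroids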
Conditions: second compound 1 µM; first compound 0.001 µM; active compounds read low
Excerpt: Multicellular complex tumor spheroid response to RAS pathway inhibitors in combination with a targeted agents in patient-derived cell lines with oncogenic KRAS variants from multiple cancer types A high-throughput screen of multi-cell type tumor spheroids was designed to identify active combinations of targeted small molecules and KRAS pathway inhibitors. […] Compounds. […] If the clinical Cmax for an agent had not been determined, the highest concentration tested was 10 microM. […]

compound | systemName | viability, T/C
CN(C)C/C=C/C(=O)Nc1cc2c(Nc3ccc(F)c(Cl)c3)ncnc2cc1O[C@H]1CCOC1 + CNCc1ccccc1-c1csc(C(C)Nc2nc(C)nc3cc(OC)c(OC)cc23)c1 | KRAS PDC tumor spheroids (HUVEC+MSC), viability | 89.2%
Cn1ncnc1[C@H]1c2n[nH]c(=O)c3cc(F)cc(c23)N[C@@H]1c1ccc(F)cc1 + COc1cc2nc(C)nc(NC(C)c3cc(N)cc(C(F)(F)F)c3)c2cc1OC1CCOC1 | KRAS PDC tumor spheroids (HUVEC+MSC), viability | 81.6%
Cn1ncnc1[C@H]1c2n[nH]c(=O)c3cc(F)cc(c23)N[C@@H]1c1ccc(F)cc1 + C=CC(=O)N1CCN(c2nc(OCC3CCCN3C)nc3c2CCN(c2cccc4cccc(C)c24)C3)CC1CC#N | KRAS PDC tumor spheroids (HUVEC+MSC), viability | 106%
Cn1ncnc1[C@H]1c2n[nH]c(=O)c3cc(F)cc(c23)N[C@@H]1c1ccc(F)cc1 + CC1OCC2(CCN(c3cnc(Sc4ccnc(N)c4Cl)c(N)n3)CC2)C1N | KRAS PDC tumor spheroids (HUVEC+MSC), viability | 85.2%
CC(C)n1nc(-c2ccc3oc(N)nc3c2)c2c(N)ncnc21 + C=CC(=O)N1CCN(c2nc(OCC3CCCN3C)nc3c2CCN(c2cccc4cccc(C)c24)C3)CC1CC#N | KRAS PDC tumor spheroids (HUVEC+MSC), viability | 118%
CC(=O)Nc1cccc(-n2c(=O)n(C3CC3)c(=O)c3c(Nc4ccc(I)cc4F)n(C)c(=O)c(C)c32)c1 + C=CC(=O)N1CCN(c2nc(=O)n(-c3c(C)ccnc3C(C)C)c3nc(-c4c(O)cccc4F)c(F)cc23)C(C)C1 | KRAS PDC tumor spheroids (HUVEC+MSC), viability | 93.9%
CC(=O)Nc1cccc(-n2c(=O)n(C3CC3)c(=O)c3c(Nc4ccc(I)cc4F)n(C)c(=O)c(C)c32)c1 + C=CC(=O)N1CCN(c2nc(OCC3CCCN3C)nc3c2CCN(c2cccc4cccc(C)c24)C3)CC1CC#N | KRAS PDC tumor spheroids (HUVEC+MSC), viability | 92.6%
CC(=O)Nc1cccc(-n2c(=O)n(C3CC3)c(=O)c3c(Nc4ccc(I)cc4F)n(C)c(=O)c(C)c32)c1 + CNCc1ccccc1-c1csc(C(C)Nc2nc(C)nc3cc(OC)c(OC)cc23)c1 | KRAS PDC tumor spheroids (HUVEC+MSC), viability | 88.2%
Cn1ncnc1[C@H]1c2n[nH]c(=O)c3cc(F)cc(c23)N[C@@H]1c1ccc(F)cc1 + CNCc1ccccc1-c1csc(C(C)Nc2nc(C)nc3cc(OC)c(OC)cc23)c1 | KRAS PDC tumor spheroids (HUVEC+MSC), viability | 97.8%
CC(=O)Nc1cccc(-n2c(=O)n(C3CC3)c(=O)c3c(Nc4ccc(I)cc4F)n(C)c(=O)c(C)c32)c1 + CC1OCC2(CCN(c3cnc(Sc4ccnc(N)c4Cl)c(N)n3)CC2)C1N | KRAS PDC tumor spheroids (HUVEC+MSC), viability | 75%
CC(=O)Nc1cccc(-n2c(=O)n(C3CC3)c(=O)c3c(Nc4ccc(I)cc4F)n(C)c(=O)c(C)c32)c1 + COc1cc2nc(C)nc(NC(C)c3cc(N)cc(C(F)(F)F)c3)c2cc1OC1CCOC1 | KRAS PDC tumor spheroids (HUVEC+MSC), viability | 89.9%
CC(C)n1nc(-c2ccc3oc(N)nc3c2)c2c(N)ncnc21 + CC1OCC2(CCN(c3cnc(Sc4ccnc(N)c4Cl)c(N)n3)CC2)C1N | KRAS PDC tumor spheroids (HUVEC+MSC), viability | 78.5%
CN(C)C/C=C/C(=O)Nc1cc2c(Nc3ccc(F)c(Cl)c3)ncnc2cc1O[C@H]1CCOC1 + COc1cc2nc(C)nc(NC(C)c3cc(N)cc(C(F)(F)F)c3)c2cc1OC1CCOC1 | KRAS PDC tumor spheroids (HUVEC+MSC), viability | 101%
CN(C)C/C=C/C(=O)Nc1cc2c(Nc3ccc(F)c(Cl)c3)ncnc2cc1O[C@H]1CCOC1 + C=CC(=O)N1CCN(c2nc(OCC3CCCN3C)nc3c2CCN(c2cccc4cccc(C)c24)C3)CC1CC#N | KRAS PDC tumor spheroids (HUVEC+MSC), viability | 97.9%
Cn1ncnc1[C@H]1c2n[nH]c(=O)c3cc(F)cc(c23)N[C@@H]1c1ccc(F)cc1 + C=CC(=O)N1CCN(c2nc(=O)n(-c3c(C)ccnc3C(C)C)c3nc(-c4c(O)cccc4F)c(F)cc23)C(C)C1 | KRAS PDC tumor spheroids (HUVEC+MSC), viability | 93.9%
CN(C)C/C=C/C(=O)Nc1cc2c(Nc3ccc(F)c(Cl)c3)ncnc2cc1O[C@H]1CCOC1 + CC1OCC2(CCN(c3cnc(Sc4ccnc(N)c4Cl)c(N)n3)CC2)C1N | KRAS PDC tumor spheroids (HUVEC+MSC), viability | 84.2%
CN(C)C/C=C/C(=O)Nc1cc2c(Nc3ccc(F)c(Cl)c3)ncnc2cc1O[C@H]1CCOC1 + C=CC(=O)N1CCN(c2nc(=O)n(-c3c(C)ccnc3C(C)C)c3nc(-c4c(O)cccc4F)c(F)cc23)C(C)C1 | KRAS PDC tumor spheroids (HUVEC+MSC), viability | 108%
CC(C)n1nc(-c2ccc3oc(N)nc3c2)c2c(N)ncnc21 + C=CC(=O)N1CCN(c2nc(=O)n(-c3c(C)ccnc3C(C)C)c3nc(-c4c(O)cccc4F)c(F)cc23)C(C)C1 | KRAS PDC tumor spheroids (HUVEC+MSC), viability | 113%
CC(C)n1nc(-c2ccc3oc(N)nc3c2)c2c(N)ncnc21 + CNCc1ccccc1-c1csc(C(C)Nc2nc(C)nc3cc(OC)c(OC)cc23)c1 | KRAS PDC tumor spheroids (HUVEC+MSC), viability | 95%
CC(C)n1nc(-c2ccc3oc(N)nc3c2)c2c(N)ncnc21 + COc1cc2nc(C)nc(NC(C)c3cc(N)cc(C(F)(F)F)c3)c2cc1OC1CCOC1 | KRAS PDC tumor spheroids (HUVEC+MSC), viability | 98.6%

Data credit: PubChem BioAssay AID1963868
